Molecular target: EGFR L858R/T790M/C797S (Homo sapiens, UniProt P00533, C797S/L858R/T790M)
Sequence (P00533 25-1210 T790M/C797S/L858R): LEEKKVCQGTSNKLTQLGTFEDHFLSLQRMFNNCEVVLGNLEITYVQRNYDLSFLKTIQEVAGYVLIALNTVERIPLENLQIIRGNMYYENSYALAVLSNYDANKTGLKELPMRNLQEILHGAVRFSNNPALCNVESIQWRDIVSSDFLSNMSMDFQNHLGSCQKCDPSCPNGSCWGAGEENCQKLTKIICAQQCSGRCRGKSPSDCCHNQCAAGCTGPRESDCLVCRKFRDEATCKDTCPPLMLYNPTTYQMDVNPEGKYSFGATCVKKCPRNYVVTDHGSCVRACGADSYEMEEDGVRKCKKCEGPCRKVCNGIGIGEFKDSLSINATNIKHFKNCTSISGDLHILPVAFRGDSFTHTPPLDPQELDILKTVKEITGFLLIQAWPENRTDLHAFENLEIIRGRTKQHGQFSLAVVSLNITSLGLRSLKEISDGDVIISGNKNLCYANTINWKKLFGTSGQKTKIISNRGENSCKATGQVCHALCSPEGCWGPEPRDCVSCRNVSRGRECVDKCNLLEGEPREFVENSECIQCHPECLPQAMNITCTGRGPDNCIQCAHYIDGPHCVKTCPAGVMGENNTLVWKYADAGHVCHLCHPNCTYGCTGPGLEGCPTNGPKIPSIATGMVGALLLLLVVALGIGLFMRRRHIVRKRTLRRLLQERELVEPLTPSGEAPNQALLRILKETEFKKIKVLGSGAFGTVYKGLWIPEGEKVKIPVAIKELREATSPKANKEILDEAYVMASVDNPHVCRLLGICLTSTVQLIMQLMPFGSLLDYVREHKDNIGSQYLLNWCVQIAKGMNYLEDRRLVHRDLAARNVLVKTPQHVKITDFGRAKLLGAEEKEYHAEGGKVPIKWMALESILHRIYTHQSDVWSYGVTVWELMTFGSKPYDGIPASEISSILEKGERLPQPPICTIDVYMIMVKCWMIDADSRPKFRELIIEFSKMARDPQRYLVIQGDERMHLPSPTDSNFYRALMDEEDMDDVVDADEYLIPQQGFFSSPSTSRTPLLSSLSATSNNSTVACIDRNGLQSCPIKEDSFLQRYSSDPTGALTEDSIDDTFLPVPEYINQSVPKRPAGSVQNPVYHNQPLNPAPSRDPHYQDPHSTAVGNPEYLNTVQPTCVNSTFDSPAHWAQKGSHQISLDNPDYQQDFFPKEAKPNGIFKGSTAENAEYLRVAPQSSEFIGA
Assay: Biochemical EGFR kinase assay (Lance Ultra TR-FRET), triple mutant L858R/T790M/C797S
Conditions: IC50 L858R/T790M/C797S, 100 μM ATP
pIC50: −log10 of the molar value.
PARAMETER MEASURED: pIC50

## Task Any idea what its pIC50 is? The molecule is O=S(=O)(C1CC1)n1cc(-c2nccc(Nc3cc(NCC4(CO)COC4)c(-c4cccc(F)n4)cn3)n2)cn1
## Result 9.30

a = Cc1ccc(-c2cnc(Nc3ccnc(-c4cnn(S(=O)(=O)C5CC5)c4)n3)cc2N[C@H]2CC[C@@H](C(C)(C)O)CC2)nc1F
b = CN1CCN(S(=O)(=O)c2ccc(-c3cnc(Nc4ccnc(-c5cnn(S(=O)(=O)C6CC6)c5)n4)cc3N[C@H]3CC[C@@](C)(O)CC3)nc2)CC1
## Task Determine, for a and b , which has the greater value of pIC50. Please indicate the selected item by its label.
## Result b
(b: 9.00, a: 8.04)
